src = BigSolDB 2.1

details: in acetone, 273.15 K
attribute_measured: solubility (mole fraction)
I'd appreciate a reply containing only the number, no unit.

Lookup result for CN1CCOC(c2ccccc2)c2ccccc2C1.Cl (stereo unspecified) ; measured solubility (mole fraction): 7.2e-05

###

details: in ethanol, 303.15 K
attribute_measured: solubility (mole fraction)
I'd appreciate a reply containing only the number, no unit.

Lookup result for CN1CCOC(c2ccccc2)c2ccccc2C1.Cl (stereo unspecified) ; measured solubility (mole fraction): 0.00402

###

conditions: in isobutanol, 323.15 K
attribute_measured: solubility (mole fraction)
I'd appreciate a reply containing only the number, no unit.

Lookup result for CN1CCOC(c2ccccc2)c2ccccc2C1.Cl (stereo unspecified) ; measured solubility (mole fraction): 0.00321
